Tested on: HCN2 cells
Assay: AAV-1-GFP transduction with CPPs, flow cytometry
Format: cell-based, human
Conditions: 200 μM CPP, MOI of 500, HCN2
Where no end group is shown, it is not given here.
The substances listed here are annotated with their increase of AAV-1 efficiency.
MEASUREMENT_KIND: increase of AAV-1 efficiency

- SUBSTANCE: "βALWRALWRLWRSLWRLLWKA (not fully specified (residue 1, N-terminus); printed as βALWRALWRLWRSLWRLLWKA) [ADGN-106]"
  TARGET_DESC: "HCN2 cells"
  RESULT: "7 fold"
- SUBSTANCE: "βALRWWLRWASRWFSRWAWWR (not fully specified (residue 1, N-terminus); printed as βALRWWLRWASRWFSRWAWWR) [ADGN-109]"
  TARGET_DESC: "HCN2 cells"
  RESULT: "15 fold"
- SUBSTANCE: "βAKWRSAGWRWRLWRVRSWSR (not fully specified (residue 1, N-terminus); printed as βAKWRSAGWRWRLWRVRSWSR) [ADGN-100]"
  TARGET_DESC: "HCN2 cells"
  RESULT: "12 fold"
- SUBSTANCE: "CRRRQRRKKRGGDIMGEWGNEIFGAIAGFLG [TAT-HA2, reference compound]"
  TARGET_DESC: "HCN2 cells"
  RESULT: "3 fold"
- SUBSTANCE: "GLWRALWRLLRSLWRLLWKV [CADY, reference compound]"
  TARGET_DESC: "HCN2 cells"
  RESULT: "3 fold"

---

The substances listed here are annotated with their cells expressing GFP.
Test system: HCN2 cells
Assay: AAV-2-GFP transduction with CPPs, flow cytometry
Type: cell-based, human
Details: 200 μM CPP, AAV-2 MOI of 500, HCN2; 4% in the absence of CPP
Where no end group is shown, it is not given here.

- SUBSTANCE: "βAKWRSAGWRWRLWRVRSWSR (not fully specified (residue 1, N-terminus); printed as βAKWRSAGWRWRLWRVRSWSR) [ADGN-100]"
  TARGET_DESC: "HCN2 cells"
  cells expressing GFP: "59%"
- SUBSTANCE: "βAKWFERWFREWPRKRR (not fully specified (residue 1, N-terminus); printed as βAKWFERWFREWPRKRR) [ADGN-103a]"
  TARGET_DESC: "HCN2 cells"
  cells expressing GFP: "71%"
- SUBSTANCE: "CRRRQRRKKRGGDIMGEWGNEIFGAIAGFLG [TAT-HA2, reference compound]"
  TARGET_DESC: "HCN2 cells"
  cells expressing GFP: "20%"
- SUBSTANCE: "GLWRALWRLLRSLWRLLWKV [CADY, reference compound]"
  TARGET_DESC: "HCN2 cells"
  cells expressing GFP: "20%"
- SUBSTANCE: "βALRWWLRWASRWFSRWAWWR (not fully specified (residue 1, N-terminus); printed as βALRWWLRWASRWFSRWAWWR) [ADGN-109]"
  TARGET_DESC: "HCN2 cells"
  cells expressing GFP: "58%"
- SUBSTANCE: "βAKWWERWWREWPRKRR (not fully specified (residue 1, N-terminus); printed as βAKWWERWWREWPRKRR) [ADGN-103b]"
  TARGET_DESC: "HCN2 cells"
  cells expressing GFP: "81%"

---

System: 293 T cells
Experiment: AAV-2/PEP-1 peptide particle stability (serum, heparin), GFP expressing cells by flow cytometry
Format: cell-based
Conditions: high concentration of serum
Where no end group is shown, it is not given here. PEG = not defined here; βAla = NCCC(=O)O
MEASUREMENT_KIND: effect of the modification on AAV/PEP-1 complex stability in serum

- SUBSTANCE: "DOPA-GGGG-KETWWETWWTEWSQPKKKRKV (GGGGKETWWETWWTEWSQPKKKRKV; not fully specified (N-terminus)) [PEP-1-DOPA, Dopamine added to the N-terminus of PEP-1 using a Gly4 linker]"
  RESULT: "stabilized"
- SUBSTANCE: "PEG-βAKETWWETWWTEWSQPKKKRKV ({PEG-βAla}-KETWWETWWTEWSQPKKKRKV; reading uncertain) [PEP-1-PEG, PEP-1 mono-PEGylated with 5 kDa PEG at the N-terminal beta Alanine]"
  RESULT: "stabilized"

---

The substances listed here are annotated with their increase of AAV-6 efficiency.
Test system: HepG2 cells
Test: AAV-6-GFP transduction with CPPs, flow cytometry
Type: cell-based, human
Conditions: 200 μM CPP, MOI of 500, HepG2
Where no end group is shown, it is not given here.
MEASUREMENT_KIND: increase of AAV-6 efficiency (fold)

- SUBSTANCE: "βAKWWERWWREWPRKRR (not fully specified (residue 1, N-terminus); printed as βAKWWERWWREWPRKRR) [ADGN-103b]"
  TARGET_DESC: "HepG2 cells"
  NUMERIC_VALUE: 30
- SUBSTANCE: "βAKWRSAGWRWRLWRVRSWSR (not fully specified (residue 1, N-terminus); printed as βAKWRSAGWRWRLWRVRSWSR) [ADGN-100]"
  TARGET_DESC: "HepG2 cells"
  NUMERIC_VALUE: 17

---

System: HepG2 cells
Test: AAV-8-GFP transduction with CPPs, flow cytometry
Assay type: cell-based, human
Settings: 200 μM CPP, AAV-8 MOI of 1000, HepG2; 5% in the absence of CPP
Where no end group is shown, it is not given here.
Lab note: anything with cells expressing GFP below 30% is marked True; values at 30% or higher are marked False.

- SUBSTANCE: "βAKWRSAGWRWRLWRVRSWSR (not fully specified (residue 1, N-terminus); printed as βAKWRSAGWRWRLWRVRSWSR) [ADGN-100]"
  CATEGORY_LABEL: "True"
- SUBSTANCE: "βAKWWERWWREWPRKRR (not fully specified (residue 1, N-terminus); printed as βAKWWERWWREWPRKRR) [ADGN-103b]"
  CATEGORY_LABEL: "False"
- SUBSTANCE: "βALRWWLRWASRWFSRWAWWR (not fully specified (residue 1, N-terminus); printed as βALRWWLRWASRWFSRWAWWR) [ADGN-109]"
  CATEGORY_LABEL: "False"
- SUBSTANCE: "CRRRQRRKKRGGDIMGEWGNEIFGAIAGFLG [TAT-HA2, reference compound]"
  CATEGORY_LABEL: "True"
- SUBSTANCE: "GLWRALWRLLRSLWRLLWKV [CADY, reference compound]"
  CATEGORY_LABEL: "True"
- SUBSTANCE: "βAKWFERWFREWPRKRR (not fully specified (residue 1, N-terminus); printed as βAKWFERWFREWPRKRR) [ADGN-103a]"
  CATEGORY_LABEL: "False"

The values you see were collected from patent US20200172913A1.
